# assay_comment: molar heat capacity at constant pressure
# assay_setup: 318 K; 101.33 kPa; Liquid; Small sample (50 mg) DSC
Recorded measurements of molar heat capacity at constant pressure, one per entry
assay_metric: molar heat capacity at constant pressure (J/K/mol)

>  <compound>
CCCC[N+]1(C)CCCC1.O=S(=O)([N-]S(=O)(=O)C(F)(F)F)C(F)(F)F

>  <output_unit>
J/K/mol

>  <readout_number>
650

$$$$
>  <compound>
CCOS(=O)(=O)[O-].CCn1cc[n+](C)c1 [1-ethyl-3-methylimidazolium ethyl sulfate]

>  <output_unit>
J/K/mol

>  <readout_number>
402

$$$$
>  <compound>
CCCC[N+]1(C)CCCC1.FC(F)(F)C(F)(F)[P-](F)(F)(F)(C(F)(F)C(F)(F)F)C(F)(F)C(F)(F)F

>  <output_unit>
J/K/mol

>  <readout_number>
785

$$$$
>  <compound>
CCCCn1cc[n+](C)c1.O=S(=O)([O-])C(F)(F)F [1-butyl-3-methylimidazolium trifluoromethanesulfonate]

>  <output_unit>
J/K/mol

>  <readout_number>
469

$$$$
>  <compound>
CCn1cc[n+](C)c1.O=S(=O)([N-]S(=O)(=O)C(F)(F)F)C(F)(F)F

>  <output_unit>
J/K/mol

>  <readout_number>
535

$$$$
>  <compound>
CCCCCCCCn1cc[n+](C)c1.O=S(=O)([N-]S(=O)(=O)C(F)(F)F)C(F)(F)F

>  <output_unit>
J/K/mol

>  <readout_number>
765

$$$$
>  <compound>
CCCC[n+]1ccn(C)c1.O=S(=O)([N-]S(=O)(=O)C(F)(F)F)C(F)(F)F

>  <output_unit>
J/K/mol

>  <readout_number>
617

$$$$
>  <compound>
CCCCCCCCCCCCCC[P+](CCCCCC)(CCCCCC)CCCCCC.O=S(=O)([N-]S(=O)(=O)C(F)(F)F)C(F)(F)F

>  <output_unit>
J/K/mol

>  <readout_number>
1384

$$$$
>  <compound>
CCCCCC[n+]1ccn(C)c1.O=S(=O)([N-]S(=O)(=O)C(F)(F)F)C(F)(F)F

>  <output_unit>
J/K/mol

>  <readout_number>
673

$$$$

----------
# assay_comment: molar heat capacity at constant pressure
# assay_setup: 353 K; 101.33 kPa; Liquid; Small sample (50 mg) DSC
assay_metric: molar heat capacity at constant pressure (J/K/mol)

>  <compound>
CCn1cc[n+](C)c1.O=S(=O)([N-]S(=O)(=O)C(F)(F)F)C(F)(F)F

>  <readout_number>
550

$$$$
>  <compound>
CCOS(=O)(=O)[O-].CCn1cc[n+](C)c1 [1-ethyl-3-methylimidazolium ethyl sulfate]

>  <readout_number>
440

$$$$
>  <compound>
CCCCCCCCn1cc[n+](C)c1.O=S(=O)([N-]S(=O)(=O)C(F)(F)F)C(F)(F)F

>  <readout_number>
817

$$$$
>  <compound>
CCCC[N+]1(C)CCCC1.FC(F)(F)C(F)(F)[P-](F)(F)(F)(C(F)(F)C(F)(F)F)C(F)(F)C(F)(F)F

>  <readout_number>
809

$$$$
>  <compound>
CCCCn1cc[n+](C)c1.O=S(=O)([O-])C(F)(F)F [1-butyl-3-methylimidazolium trifluoromethanesulfonate]

>  <readout_number>
500

$$$$
>  <compound>
CCCC[N+]1(C)CCCC1.O=S(=O)([N-]S(=O)(=O)C(F)(F)F)C(F)(F)F

>  <readout_number>
658

$$$$
>  <compound>
CCCCCCCCCCCCCC[P+](CCCCCC)(CCCCCC)CCCCCC.O=S(=O)([N-]S(=O)(=O)C(F)(F)F)C(F)(F)F

>  <readout_number>
1409

$$$$
>  <compound>
CCCC[n+]1ccn(C)c1.O=S(=O)([N-]S(=O)(=O)C(F)(F)F)C(F)(F)F

>  <readout_number>
639

$$$$
>  <compound>
CCCCCC[n+]1ccn(C)c1.O=S(=O)([N-]S(=O)(=O)C(F)(F)F)C(F)(F)F

>  <readout_number>
687

$$$$
